Data origin: patent US5223411A

PROTOCOL SUMMARY: Solubility in water, usual buffers and organic solvents
Format: physicochemical
SETTINGS: usual buffers; in currant buffers, at 4° C.; read-out: solubility
QUANTITY NAME: solubility

I have this compound here, CCCCCCCNC(=O)OC[C@H]1O[C@H](OC)[C@H](O)[C@@H](O)[C@@H]1O , and I need its recorded solubility.
> 60 mg/mL
